- study.target: human recombinant NAPRT (Homo sapiens)
- Sequence (Q6XQN6 1-538): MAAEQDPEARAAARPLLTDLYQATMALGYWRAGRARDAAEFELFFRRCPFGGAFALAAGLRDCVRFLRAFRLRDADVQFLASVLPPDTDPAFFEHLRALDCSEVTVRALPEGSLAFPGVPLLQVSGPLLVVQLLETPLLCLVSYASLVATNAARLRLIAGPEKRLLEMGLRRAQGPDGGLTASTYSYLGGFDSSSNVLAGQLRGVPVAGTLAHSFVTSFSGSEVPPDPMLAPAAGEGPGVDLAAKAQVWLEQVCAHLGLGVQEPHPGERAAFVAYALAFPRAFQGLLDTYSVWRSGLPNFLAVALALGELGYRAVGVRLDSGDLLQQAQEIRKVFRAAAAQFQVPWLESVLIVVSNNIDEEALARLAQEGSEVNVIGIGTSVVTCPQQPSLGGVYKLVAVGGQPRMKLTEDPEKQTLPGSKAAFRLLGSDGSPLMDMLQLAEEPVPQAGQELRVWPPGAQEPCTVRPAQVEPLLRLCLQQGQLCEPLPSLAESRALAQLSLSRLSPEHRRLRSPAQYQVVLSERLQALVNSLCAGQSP
- assay.overview: Continuous coupled fluorometric NADH assay of NAPRT activity
pIC50: −log10 of the molar value.
metric.name: pIC50

{"columns": ["smiles.string", "pIC50"],
 "data": [
  ["O=C(O)c1ccc(Cl)nc1", 2.90],
  ["O=C(O)c1ccccc1O", 3.45]
]}

P. O=C(O)c1cccnn1
Q. Nc1ncccc1C(=O)O
R. O=C(O)c1cccnc1F
Query: Descending sort on pIC50 required. A ranking is expressed here by listing the labels in the requested order.
Response: R, Q, P
